assayed system: human plasmin (Homo sapiens, UniProt P00747)
Sequence (P00747 581-810 limits assumed): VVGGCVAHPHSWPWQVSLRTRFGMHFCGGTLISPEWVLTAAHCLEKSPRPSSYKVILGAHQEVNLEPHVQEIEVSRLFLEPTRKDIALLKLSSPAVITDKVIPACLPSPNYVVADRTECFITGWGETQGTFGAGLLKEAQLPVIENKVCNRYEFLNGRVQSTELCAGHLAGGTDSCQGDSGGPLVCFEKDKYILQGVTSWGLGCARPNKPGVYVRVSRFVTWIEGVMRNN
Sequence (P00747 97-580 partner limits assumed): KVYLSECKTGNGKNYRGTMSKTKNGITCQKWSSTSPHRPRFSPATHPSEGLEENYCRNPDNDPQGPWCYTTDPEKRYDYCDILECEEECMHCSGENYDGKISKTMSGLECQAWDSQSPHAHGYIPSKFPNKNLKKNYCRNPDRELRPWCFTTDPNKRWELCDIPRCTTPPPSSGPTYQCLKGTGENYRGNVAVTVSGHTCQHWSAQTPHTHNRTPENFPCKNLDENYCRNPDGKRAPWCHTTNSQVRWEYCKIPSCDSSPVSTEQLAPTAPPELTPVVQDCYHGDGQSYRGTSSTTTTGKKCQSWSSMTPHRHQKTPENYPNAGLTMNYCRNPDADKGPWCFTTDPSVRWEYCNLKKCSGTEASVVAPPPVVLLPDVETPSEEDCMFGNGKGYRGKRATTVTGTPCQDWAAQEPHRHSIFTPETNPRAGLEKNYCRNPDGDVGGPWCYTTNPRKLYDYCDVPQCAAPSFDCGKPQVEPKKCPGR
assay explanation: biochemical
condition info: read-out: Plasmin S-2251 (I50)
Structures can show the parent of a compound that is named as a salt.
measure: IC50 (nM)

Some compounds with known IC50 results, for comparison:
- NC[C@H]1CC[C@H](C(=O)N[C@@H](Cc2ccc(OCc3cccc(Cl)c3)cc2)C(=O)Nc2cccc(Cl)c2)CC1 [compound 66]: 800
- NC[C@H]1CC[C@H](C(=O)N[C@@H](Cc2ccc(OCc3ccccc3)cc2)C(=O)Nc2ccnc(Cl)c2)CC1 [Compound No. 59, hydrochloride]: 1400
- NC[C@H]1CC[C@H](C(=O)N[C@@H](Cc2ccc(OCc3cccc(Cl)c3)cc2)C(=O)Nc2ccnc(Cl)c2)CC1 [compound 128]: 1400

a: CC(=O)c1ccc(NC(=O)[C@H](Cc2ccc(OCc3ccc(Br)cc3)cc2)NC(=O)[C@H]2CC[C@H](CN)CC2)cc1 [compound 17]
b: CCOC(=O)c1ccc(COc2ccc(C[C@H](NC(=O)[C@H]3CC[C@H](CN)CC3)C(=O)Nc3ccc(C(C)=O)cc3)cc2)cc1 [compound 86]
// compare: a vs b , metric IC50, want the smaller Respond with the label that goes with your answer.
b
(b: 950 nM, a: 1500 nM)

====

assayed system: UniProt P00760
Sequence (P00760 24-246): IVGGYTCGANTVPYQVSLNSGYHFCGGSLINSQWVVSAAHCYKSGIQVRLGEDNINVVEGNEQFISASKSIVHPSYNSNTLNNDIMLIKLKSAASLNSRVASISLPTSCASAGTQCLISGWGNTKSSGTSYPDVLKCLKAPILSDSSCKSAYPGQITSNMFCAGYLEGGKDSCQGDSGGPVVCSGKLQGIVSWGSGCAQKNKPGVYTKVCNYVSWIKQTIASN
assay explanation: Antitrypsin activity: inhibition of S-2238 decomposition
Format: biochemical
condition info: Table 2; S-2238 substrate, pH 8.1, 37° C.; read-out: Trypsin S-2238 (I50)
Where a name gives a salt, the structure may show the parent alone.
measure: IC50 (nM)

Some compounds with known IC50 results, for comparison:
• NC[C@H]1CC[C@H](C(=O)N[C@@H](Cc2ccc(OCc3ccccc3)cc2)C(=O)Nc2cccc(Cl)c2)CC1 [compound 36] = 820
• CC(=O)c1ccc(NC(=O)[C@H](Cc2ccc(OCc3cccc(C#N)c3)cc2)NC(=O)[C@H]2CC[C@H](CN)CC2)cc1 [Compound No. 122, hydrochloride] = 1000
• CC1CCC(NC(=O)C(Cc2ccc(OCc3cccc(Cl)c3)cc2)NC(=O)C2CCC(CN)CC2)CC1C (centres unmarked) [compound 102] = 1300
• CC(=O)c1ccc(NC(=O)[C@H](Cc2ccc(OCc3cccc(F)c3)cc2)NC(=O)[C@H]2CC[C@H](CN)CC2)cc1 [compound 56] = 1200
• COc1ccc(C[C@H](NC(=O)[C@H]2CC[C@H](CN)CC2)C(=O)Nc2ccc(C(C)=O)cc2)cc1 [Compound No. 6] = 1100
• CC(=O)c1ccc(NC(=O)[C@H](Cc2ccc(OC(=O)OCc3ccccc3Br)cc2)NC(=O)[C@H]2CC[C@H](CN)CC2)cc1 [compound 144] = 950

1: CC(=O)c1ccc(NC(=O)[C@H](Cc2ccc(OCc3cccc(Cl)c3)cc2)NC(=O)[C@H]2CC[C@H](CN)CC2)cc1 [Compound No. 35]
2: CC(=O)c1ccc(NC(=O)[C@H](Cc2ccc(OCc3ccccc3Cl)cc2)NC(=O)[C@H]2CC[C@H](CN)CC2)cc1 [compound 83]
Could you point out whether the larger IC50 belongs to 1 or to 2 ? Respond with the label that goes with your answer.
2
(2: 1500 nM, 1: 1000 nM)

====

assayed system: bovine thrombin (Bos taurus)
assay explanation: Antithrombin activity: inhibition of fibrin formation from fibrinogen
Type: biochemical
pIC50: −log10 of the molar value. Where a name gives a salt, the structure may show the parent alone.
measure: pIC50

• CSc1ccc(NC(=O)[C@H](Cc2ccc(OCc3ccccc3)cc2)NC(=O)[C@H]2CC[C@H](CN)CC2)cc1 = < 4.60

The observed pIC50 for CC(=O)c1ccc(NC(=O)[C@H](Cc2ccc(Oc3ccc([N+](=O)[O-])cn3)cc2)NC(=O)[C@H]2CC[C@H](CN)CC2)cc1 [Compound No. 121, hydrochloride] when tested with bovine thrombin (Bos taurus) stands at < 3.70

The observed pIC50 for COc1ccc(C[C@H](NC(=O)[C@H]2CC[C@H](CN)CC2)C(=O)Nc2ccc(C(C)=O)cc2)cc1 when tested with bovine thrombin (Bos taurus) stands at < 3.30
